# Study Target: human Orexin-2 receptor (Homo sapiens, UniProt O43614)
# Construct: expressed in transfected cells; host or cells: HEK293 cells (transient transfection, Genejuice); membranes
# Sequence (O43614 1-444): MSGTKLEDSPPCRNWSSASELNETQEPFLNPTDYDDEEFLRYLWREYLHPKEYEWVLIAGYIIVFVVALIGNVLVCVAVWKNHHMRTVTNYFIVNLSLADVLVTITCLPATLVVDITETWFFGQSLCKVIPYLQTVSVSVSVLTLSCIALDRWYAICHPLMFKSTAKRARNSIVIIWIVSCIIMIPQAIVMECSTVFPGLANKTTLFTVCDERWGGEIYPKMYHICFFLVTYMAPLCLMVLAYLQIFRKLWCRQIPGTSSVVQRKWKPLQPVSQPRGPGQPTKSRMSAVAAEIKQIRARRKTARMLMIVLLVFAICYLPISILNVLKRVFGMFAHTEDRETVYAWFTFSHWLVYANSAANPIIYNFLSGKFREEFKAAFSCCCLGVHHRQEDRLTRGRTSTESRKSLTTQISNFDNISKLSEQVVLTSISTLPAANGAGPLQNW
# Procedure Details: 3H-EMPA radioligand binding assay
# Assay Setup: 3H-EMPA displacement, membranes of HEK293 cells transfected with human Orexin-2 receptor; KI by Cheng-Prussoff; read-out: OX2 pKi ave (converted)
# Method: cDNA encoding the human Orexin-2 receptor was transfected into HEK293 cells using the transfection reagent Genejuice (Novagen). Forty-eight hours after transfection, cells were harvested and washed twice with ice cold phosphate-buffered saline. The pellet was resuspended in ice-cold buffer containing 20 mM Tris-HCl, pH 7.4, 1 mM EDTA and homogenised with an Ultraturax for 30 s at maximum speed. […] Protein concentration was determined using the BCA protein assay method. […]
Reported log10 Ki values for a set of compounds
For clarity, the numbers are log10 values of Ki expressed in nM.

COc1ccc(N2C(=O)N(Cc3ncccc3F)c3ccccc3S2(=O)=O)cc1OC [Example 88]: 1.45

Turning now to a further record.
// query Item under review: COc1ccc(N2C(=O)N(Cc3c(F)cccc3Cl)c3ncccc3S2(=O)=O)nc1OC [Example 168] . Reported log10 Ki?
// result 0.09
